The following variants are listed with their measured aptazyme ON/OFF ratio values.
B1: Pistol ribozyme (parent)
chain: GGGUCGUUGUUCCAUAAUCGCGUGGAUAUGGCACGCAAGUUUCUACCGGGCACCGUAAAUGUCCGACUGGAGCCGUUCGGGCGGCUAUAAACAGACCUCAGGCCCGAAGCGUGGCGGCACCUGCCGCCGGUGGUAAAAAAGAUCGGAAGAGCACACGUCU

Variants of: B1
Experiment: aptazyme ON/OFF ratio, guanine; higher = stronger switching; co-transcriptional cleavage with and without guanine

Residue change	aptazyme ON/OFF ratio
U7A U8C G9C U10A U11G C12A C13U	1.11
U7A G9U U10C U11G	1.32
U7C U8A U11A C12U C13U	1.24
U7G U8A G9C U10C U11A C12U	1.07
U7C G9U U10C U11G C13G	1.04
U7C U8G G9U U10G C12G C13G	1.08
U8C G9C U10A U11A C12U C13A	1.09
U8G G9A U11G C13G	1.05
U10C U11A C12G C13G	1.25
U7C U10G U11A C12U	1.15
U7A U10C U11A C13A	1.15

Where do the numbers come from? From the RNAGym collection of RNA variant scans (doi:10.1021/acssynbio.7b00057).
